# Procedure Text: Oral bioavailability in rat at 5 mg/kg
# Assay type: ADME, organism-based
# Condition Context: in vivo
Outcome Measure: bioavailability
Answer format: number, then unit.

INPUT: Please look at this molecule and report its bioavailability: O=C(O)C[C@@H]1COc2cc3c(cc21)OC[C@@H](c1cccc(C(F)(F)F)c1)O3
OUTPUT: 100%

----------
# Procedure Text: Half life in beagle dog at 1 mg/kg, po
# Assay type: ADME, organism-based, Canis lupus familiaris
# Parameters: dose 1 mg/kg, route oral
# Condition Context: in vivo
Outcome Measure: half-life (h)
Quick reminder: number only, in h, skip the unit.

INPUT: Please look at this molecule and report its half-life: O=C(O)C[C@@H]1COc2cc3c(cc21)OC[C@@H](c1cccc(Br)c1)O3
OUTPUT: 26.4

INPUT: Please look at this molecule and report its half-life: O=C(O)C[C@@H]1COc2cc3c(cc21)OC[C@@H](c1cccc(C(F)(F)F)c1)O3
OUTPUT: 19.1

INPUT: Please look at this molecule and report its half-life: O=C(O)C[C@@H]1COc2cc3c(cc21)OC[C@@H](c1cccc(Cl)c1)O3
OUTPUT: 21.1

----------
# System: Free fatty acid receptor 1 (Rattus norvegicus)
# Procedure Text: Agonist activity at GPR40 in rat INS-1 cells assessed as glucose-stimulated insulin secretion relative to TAK-875
# Assay type: cell-based
# Condition Context: INS1
Exercise: state measured Emax for each of the compounds provided.
Quick reminder: number only, in %, skip the unit.

INPUT: Please look at this compound and report its Emax: O=C(O)C[C@@H]1COc2cc3c(cc21)OC[C@@H](c1cccc(C(F)(F)F)c1)O3
OUTPUT: 43.6

INPUT: Please look at this compound and report its Emax: O=C(O)C[C@@H]1COc2cc3c(cc21)OC[C@@H](c1cccc(Cl)c1)O3
OUTPUT: 36.8

INPUT: Please look at this compound and report its Emax: O=C(O)C[C@@H]1COc2cc3c(cc21)OC[C@@H](c1cccc(Br)c1)O3
OUTPUT: 40

INPUT: Please look at this compound and report its Emax: O=C(O)C[C@@H]1COc2cc3c(cc21)OC[C@@H](c1ccc(Cl)c(Cl)c1)O3
OUTPUT: 46.8

----------
Exercise: state measured half-life for each of the compounds provided.
# Procedure Text: Half life in rat at 5 mg/kg, po
# Format: ADME, organism-based
# Parameters: dose 5 mg/kg, route oral
# Condition Context: in vivo
Quick reminder: number only, in h, skip the unit.

INPUT: Please look at this compound and report its half-life: O=C(O)C[C@@H]1COc2cc3c(cc21)OC[C@@H](c1cccc(Cl)c1)O3
OUTPUT: 27.5

INPUT: Please look at this compound and report its half-life: O=C(O)C[C@@H]1COc2cc3c(cc21)OC[C@@H](c1cccc(Br)c1)O3
OUTPUT: 26.8

INPUT: Please look at this compound and report its half-life: O=C(O)C[C@@H]1COc2cc3c(cc21)OC[C@@H](c1cccc(C(F)(F)F)c1)O3
OUTPUT: 16.1

INPUT: Please look at this compound and report its half-life: O=C(O)C[C@@H]1COc2cc3c(cc21)OC[C@@H](c1ccc(Cl)c(Cl)c1)O3
OUTPUT: 13.3

----------
Exercise: state measured Emax for each of the molecules provided.
# System: UniProt O14842
# Procedure Text: Agonist activity at human GPR40 transfected in CHO cells by calcium flux assay relative to TAK-875
# Type: functional, cell-based
Answer format: number, then unit.

INPUT: Please look at this molecule and report its Emax: O=C(O)C[C@@H]1COc2cc3c(cc21)OCC(c1cc(F)cc(C(F)(F)F)c1)O3 (stereo partly drawn)
OUTPUT: 79%

INPUT: Please look at this molecule and report its Emax: O=C(O)C[C@@H]1COc2cc3c(cc21)OCC(c1cccc(Br)c1)O3 (stereo partly drawn)
OUTPUT: 89%

INPUT: Please look at this molecule and report its Emax: Cc1cc(OCCCS(C)(=O)=O)cc(C)c1-c1cccc([C@@H]2COc3cc4c(cc3O2)OC[C@H]4CC(=O)O)c1
OUTPUT: 124%

----------
Exercise: state measured Emax for each of the molecules provided.
# System: Free fatty acid receptor 1 (Homo sapiens, UniProt O14842)
# Sequence (O14842 whole entry): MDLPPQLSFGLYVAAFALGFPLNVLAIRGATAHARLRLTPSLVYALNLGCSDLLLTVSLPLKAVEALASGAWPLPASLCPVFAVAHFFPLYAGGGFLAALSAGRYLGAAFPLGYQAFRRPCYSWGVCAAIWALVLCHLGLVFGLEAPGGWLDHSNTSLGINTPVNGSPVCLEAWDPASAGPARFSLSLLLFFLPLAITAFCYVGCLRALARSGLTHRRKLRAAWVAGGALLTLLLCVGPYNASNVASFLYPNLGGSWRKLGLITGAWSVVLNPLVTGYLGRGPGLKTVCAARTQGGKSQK
# Procedure Text: Agonist activity at human GPR40 transfected in CHO cells by calcium flux assay relative to TAK-875
# Format: functional, cell-based
Quick reminder: number only, in %, skip the unit.

INPUT: Please look at this molecule and report its Emax: Cc1cc(OCCCS(C)(=O)=O)cc(C)c1-c1ccc(F)c([C@H]2COc3cc4c(cc3O2)OC[C@H]4CC(=O)O)c1
OUTPUT: 83

INPUT: Please look at this molecule and report its Emax: Cc1cccc(C)c1-c1cccc([C@H]2COc3cc4c(cc3O2)OC[C@H]4CC(=O)O)c1
OUTPUT: 72

INPUT: Please look at this molecule and report its Emax: Cc1cc(OCCCS(C)(=O)=O)c(F)c(C)c1-c1cccc([C@@H]2COc3cc4c(cc3O2)OC[C@H]4CC(=O)O)c1
OUTPUT: 83

INPUT: Please look at this molecule and report its Emax: Cc1cc(OCCCS(C)(=O)=O)cc(C)c1-c1ccc(F)c([C@@H]2COc3cc4c(cc3O2)OC[C@H]4CC(=O)O)c1
OUTPUT: 87

INPUT: Please look at this molecule and report its Emax: O=C(O)C[C@@H]1COc2cc3c(cc21)OCC(c1cccc(-c2ccc(F)cc2Cl)c1)O3 (stereo not given in full)
OUTPUT: 103

INPUT: Please look at this molecule and report its Emax: Cc1ccc(C)c(-c2cccc(C3COc4cc5c(cc4O3)OC[C@H]5CC(=O)O)c2)c1 (stereo not given in full)
OUTPUT: 89

INPUT: Please look at this molecule and report its Emax: O=C(O)C[C@@H]1COc2cc3c(cc21)OCC(c1ccc(Br)cc1)O3 (stereo not given in full)
OUTPUT: 38

INPUT: Please look at this molecule and report its Emax: O=C(O)C[C@@H]1COc2cc3c(cc21)OC[C@@H](c1cccc(C(F)(F)F)c1)O3
OUTPUT: 99.5

INPUT: Please look at this molecule and report its Emax: Cc1ccc(-c2cccc(C3COc4cc5c(cc4O3)OC[C@H]5CC(=O)O)c2)c(C)c1 (stereo not given in full)
OUTPUT: 90

INPUT: Please look at this molecule and report its Emax: CS(=O)(=O)CCCOc1ccc(-c2cc(F)cc(C3COc4cc5c(cc4O3)OC[C@H]5CC(=O)O)c2)c(Cl)c1 (stereo not given in full)
OUTPUT: 69

----------
# System: UniProt:O14842
# Procedure Text: Agonist activity at human GPR40 transfected in CHO cells by calcium flux assay
Exercise: state measured EC50 for each of the compounds provided.
Quick reminder: number only, in nM, skip the unit.

INPUT: Please look at this compound and report its EC50: O=C(O)C[C@@H]1COc2cc3c(cc21)OCC(c1cc(F)cc(Br)c1)O3 (stereo not given in full)
OUTPUT: 105

INPUT: Please look at this compound and report its EC50: O=C(O)C[C@@H]1COc2cc3c(cc21)OC[C@@H](c1cccc(Cl)c1)O3
OUTPUT: 34.2

INPUT: Please look at this compound and report its EC50: Cc1cc(OCCCS(C)(=O)=O)c(F)c(C)c1-c1cccc([C@@H]2COc3cc4c(cc3O2)OC[C@H]4CC(=O)O)c1
OUTPUT: 82.4

INPUT: Please look at this compound and report its EC50: Cc1cc(OCCCS(C)(=O)=O)cc(C)c1-c1cccc([C@H]2COc3cc4c(cc3O2)OC[C@H]4CC(=O)O)c1
OUTPUT: 282

INPUT: Please look at this compound and report its EC50: Cc1cc(OCCCS(C)(=O)=O)cc(C)c1-c1cccc([C@@H]2COc3cc4c(cc3O2)OC[C@H]4CC(=O)O)c1
OUTPUT: 55.9

----------
# System: Free fatty acid receptor 1 (Homo sapiens)
# Procedure Text: Agonist activity at human GPR40 transfected in CHO cells by calcium flux assay
Outcome Measure: EC50 (nM)
Quick reminder: number only, in nM, skip the unit.

INPUT: Please look at this compound and report its EC50: Cc1cc(OCCCS(C)(=O)=O)cc(C)c1-c1ccc(F)c([C@H]2COc3cc4c(cc3O2)OC[C@H]4CC(=O)O)c1
OUTPUT: 67.5

INPUT: Please look at this compound and report its EC50: O=C(O)C[C@@H]1COc2cc3c(cc21)OCC(c1cccc(C2CC2)c1)O3 (stereo partly drawn)
OUTPUT: 36.4

INPUT: Please look at this compound and report its EC50: O=C(O)C[C@@H]1COc2cc3c(cc21)OC[C@H](c1cccc(-c2ccccc2Cl)c1)O3 (mixture of isomers)
OUTPUT: 56.7
